target-under-test: human full-length VWF (human, UniProt P04275 764-2813)
assay-explanation: SPR, Biacore T200, antibody captured on Protein A, full-length VWF as analyte, single-cycle kinetics
// pKd lookup, one value per entry
Keep in mind that pKd stands for -log10 of concentration in molar terms.

Recorded results for 2 binders are shown here.
{"binder": "1-A2_H0_VL-par (antibody, human IgG1, kappa, V domains shown, also called 1-A2_H0 (hIgG1)) VH: QVQLVESGGGVVQPGRSLRLSCAASGFTFSSNAMNWVRQAPGKGLEWVAGIYGHDTSYYAAWAKGRFTISRDNSKNTLYLQMNSLRAEDTAVYYCARGFIYFDIWGQGTLVTVSS VL: AIEMTQTPPSLSASVGETVRIRCLASEDIYSGISWYQQKPGKPPTLLIYGASNLESGVPPRFSGSGSGTDYTLTIGGVQAEDAATYYCLGGHSHSTTDLTFGAGTKVEIKT", "measure-name": "pKd", "recorded-number": 10.75}
{"binder": "4-H3_VH-par_L1 (antibody, human IgG1, kappa, V domains shown, also called 4-H3_L1 (hIgG1K)) VH: SQSLEESGGRLVPPGTPLTLTCTVSGIDLTSNAMNWVRQAPGKGLEWIGGIYGHDTSYYAAWAKGRFTISRTSTTVDLKMTRPTTDDTATYFCARGFIYFDIWGTGTLVTISS VL: DYQMTQSPSSLSASVGDRVTITCLASEDIASGISWYQQKPGKAPKLLIYGASNLESGVPSRFSGSGSGTDYTLTISSLQPEDFATYYCLGGYSFSSNGLTFGGGTKVEIKT", "measure-name": "pKd", "recorded-number": 11.84}

Attention now turns to another entry.
INPUT: Return reported pKd; argument: 1-A2_H2_VL-par (antibody, human IgG1, kappa, V domains shown, also called 1-A2_H2 (hIgG1)) VH: QQLVESGGGVVQPGRSLRLSCAASGIDLTSNAMNWVRQAPGKGLEWIGGIYGHDTSYYAAWAKGRFTISRDSNTVYLQMNSLRAEDTATYFCARGFIYFDIWGQGTLVTVSS VL: AIEMTQTPPSLSASVGETVRIRCLASEDIYSGISWYQQKPGKPPTLLIYGASNLESGVPPRFSGSGSGTDYTLTIGGVQAEDAATYYCLGGHSHSTTDLTFGAGTKVEIKT
OUTPUT: 9.50
